Study the reported IC50 values for Prostaglandin G/H synthase 2 (Homo sapiens) given below; they originate from different publications.

Consider the reported IC50 for these compounds:
- cpd smiles: "C=CCNc1cc(C(F)(F)F)cc(-c2ccc(S(C)(=O)=O)cc2)n1"
  tested target: "Prostaglandin G/H synthase 2 (Homo sapiens)"
  IC50: "≤ 500 nM"
- cpd smiles: "Cc1cc(NCc2cn(C)nc2C)nc(-c2ccc(S(C)(=O)=O)cc2)c1"
  tested target: "Prostaglandin G/H synthase 2 (Homo sapiens)"
  IC50: "≤ 500 nM"
- cpd smiles: "Cc1ccc(CNc2cc(C)cc(-c3ccc(S(C)(=O)=O)cc3)n2)cc1"
  tested target: "Prostaglandin G/H synthase 2 (Homo sapiens)"
  IC50: "≤ 500 nM"
- cpd smiles: "Cc1ccc(CNc2nc(-c3ccc(S(C)(=O)=O)cc3)c(C)c(C(F)(F)F)n2)cc1"
  tested target: "Prostaglandin G/H synthase 2 (Homo sapiens)"
  IC50: "15300 nM"
- cpd smiles: "Cc1c(-c2ccc(S(C)(=O)=O)cc2)nc(NCc2ccccc2O)nc1C(F)(F)F"
  tested target: "Prostaglandin G/H synthase 2 (Homo sapiens)"
  IC50: "2500 nM"
- cpd smiles: "Cc1cc(-c2ccc(S(C)(=O)=O)cc2)nc(NCc2cnn(C)c2)c1Cl"
  tested target: "Prostaglandin G/H synthase 2 (Homo sapiens)"
  IC50: "≤ 500 nM"
- cpd smiles: "Cc1ccc(-c2nc3ncccn3c2-c2ccc(SC(C)C)c(Cl)c2)cc1"
  tested target: "Prostaglandin G/H synthase 2 (Homo sapiens)"
  IC50: "> 25000 nM"
- cpd smiles: "CCc1cc(OCc2cccnc2C)nc(-c2ccc(S(C)(=O)=O)cc2)c1"
  tested target: "Prostaglandin G/H synthase 2 (Homo sapiens)"
  IC50: "≤ 500 nM"

# input for lookup
Which IC50 reading was recorded for the compound Cc1cc(NCc2cc(C)ns2)nc(-c2ccc(S(C)(=O)=O)cc2)c1 ?
≤ 500 nM
